System: HOP-62 NSCLC
testSummary: NCI-60 one-dose screen, 48 h
assayConditions: 10 µM unless noted
About 83,000 compounds went through this panel and 20% of them were active in at least one assay; those are over-represented in the sample as a whole. Active and inactive are the calls of the source. The calls were made as follows: active = growth percent below 10; inactive = the rest.
Labels: t (active), f (inactive)

compound: CC1(C)NCCC[C@]2(C)[C@H]3C/C(=N\O)C4[C@@H]5C[C@@](C)(CO)CC[C@]5(C)CC[C@@]4(C)[C@]3(C)CC[C@@H]12 (stereo partly drawn)
label: f
--
compound: COc1cc2oc(-c3cccc(NC(=O)c4cc(N)ccc4Cl)c3)cc(=O)c2c(OC)c1OC
label: f
--
compound: NC(N)=Nc1ccc(Oc2cccc(Nc3ccc(Cl)c(C(F)(F)F)c3)c2)cn1
label: t
--
compound: COc1ccc(S(=O)(=O)NCCCNc2nccc(-c3cn(C(C)(C)C)nc3-c3ccc(Cl)c(OC)c3)n2)cc1
label: f
--
compound: NC(N)=Nc1ccc(Oc2cccc(NC(N)=Nc3ccc(Cl)c(C(F)(F)F)c3)c2)cn1
label: f
--
compound: N#Cc1cccc(CN2CCc3ncn(Cc4ccc(Cl)cc4)c(=O)c3C2)c1
label: f
--
compound: COc1cc2nc(Cl)nc(Nc3cccc(C4=Nc5c(N)nc(N)nc5NC(c5ccc(Cl)cc5)C4)c3)c2cc1OC (stereo not drawn)
label: f
--
compound: Cc1cc(C)c(N2C(=O)CC(Nc3ccc(Cl)cc3Cl)C2=O)c(C)c1 (stereo not drawn)
label: f
--
compound: COc1ccc(NC(=O)CSc2nnc(-c3ccc4nc(-c5ccc(OC)c(OC)c5)[nH]c4c3)o2)cc1OC
label: f
--
compound: O=C(NCCN1CCCC1)c1ccc(-c2nc3ccc4[nH]ncc4c3c3c2CCCC3)cc1
label: f
--
compound: CCCn1cnc2c(c1=N)C(c1ccc(Cl)cc1)c1sc3c(CC)cccc3c1O2 (stereo not drawn)
label: f
--
compound: O=C(O)c1ccc(-n2cc(CNc3cc(F)c(F)c(F)c3)c(-c3cccc(F)c3)n2)cc1
label: f
--
compound: CCCCCc1ccc(S(=O)(=O)Nc2cccc(-c3csc(NC(=O)CN4CCN(C)CC4)n3)c2)cc1
label: f

====

Tested on: SK-MEL-28 melanoma
testSummary: NCI-60 one-dose screen, 48 h (100 = growth as untreated, 0 = no growth, -100 = all killed)
assayConditions: 10 µM unless noted
This is part of a sample that, as a whole, favours compounds with a hit. Of some 83,000 tested, about 20% had one in any assay. Calls of active or inactive are those of the source. Rule for the calls: active = growth percent below 10; inactive = the rest.
parameterMeasured: growth

compound: CCOc1ccc(NC2=C(Cl)C(=O)c3nc(C)ccc3C2=O)cc1
assayResult: 8.93% (active)
//
compound: NC(N)=Nc1ccc(Oc2ccc(Nc3ccc(Cl)c(C(F)(F)F)c3)cc2)cc1
assayResult: 56.6% (inactive)
//
compound: N#Cc1cccc(CN2CCc3ncn(Cc4ccc(Cl)cc4)c(=O)c3C2)c1
assayResult: 36.9% (inactive)
//
compound: Cc1cc(C)n(C(=O)c2sc(=S)n(-c3ccccc3)c2N=Nc2c(N)n[nH]c2N)n1
assayResult: 106% (inactive)
//
compound: NS(=O)(=O)c1ccc(-n2cc(-c3cccc(NC(=O)c4ccc(N5CCOCC5)c(C(F)(F)F)c4)c3)nn2)cc1
assayResult: 54.7% (inactive)
//
compound: COc1ccc(NCc2cn(-c3ccc(C(=O)O)cc3)nc2-c2cc(C(F)(F)F)cc(C(F)(F)F)c2)cc1
assayResult: 107% (inactive)
//
compound: CCc1cccc2c3c(sc12)C(c1ccc(Cl)cc1)C(C#N)=C(/N=C/c1ccc(Cl)cc1)O3 (configuration not stated)
assayResult: 56.7% (inactive)

====

Test system: HCT-15 colon
testSummary: NCI-60 one-dose screen, 48 h
assayConditions: 10 µM unless noted
About 83,000 compounds went through this panel and 20% of them were active in at least one assay; those are over-represented in the sample as a whole. Active and inactive are the calls of the source. How the source made its calls: active means growth percent below 10; inactive means the rest.
Labels: active, inactive

compound: CC(=O)Nc1cccc(Nc2nc(N[C@H](C)c3ccccc3)c3ccccc3n2)c1
label: inactive

compound: CCc1cccc(NC(=O)CNc2cc(S(=O)(=O)N(C)C)cc(C)c2C)c1
label: inactive

compound: Cc1nn(-c2ccccc2)c2ncnc(N/N=C/c3ccccc3O)c12
label: inactive

compound: CC(C)(C)n1nnnc1C(Nc1cccc2c1OCO2)c1cc2cccc3ccc4cccc1c4c32 (centres undefined)
label: inactive

compound: N#Cc1c(Nc2ccccc2)nn2c(-c3ccc([N+](=O)[O-])cc3)ccnc12
label: inactive

compound: COc1ccc2c(c1)c(-c1cc(N)n3nc(-c4cn(C)c5ccc(OC)cc45)cc3n1)cn2C
label: inactive

compound: CCOC(=O)c1c(NC(=O)c2ccccc2C(F)(F)F)sc2c1CCC(=O)C2
label: inactive

compound: CCCCCc1ccc(S(=O)(=O)Nc2cc(-c3csc(NC(=O)CN4CCN(C)CC4)n3)ccc2OC)cc1
label: active

compound: Cn1cc(CNc2nc3ccc(OC/C(=C/F)CN)cc3o2)ccc1=O
label: inactive

compound: O=C(CSc1nc2ccccc2c(=O)n1-c1ccc(Cl)cc1)N/N=C/c1ccc(N2CCCCC2)cc1
label: inactive

compound: CNC(=O)c1cc(-c2ccc(NC(=S)Nc3cc(C(F)(F)F)cc(C(F)(F)F)c3)cc2)nc2cccnc12
label: inactive

compound: O=S(=O)(NCCNc1nccc(-n2cnc3ccccc32)n1)c1ccc(Br)cc1
label: inactive

compound: COc1ccccc1-n1cc(C#N)c(N)c1C(=O)c1ccc(Br)cc1
label: inactive

compound: Cc1cc(S(=O)(=O)N(C)C)cc(NCC(=O)NC(=O)NCC(C)C)c1C
label: inactive

====

Tested on: CAKI-1 renal
testSummary: NCI-60 one-dose screen, 48 h
assayConditions: 10 µM unless noted
This is part of a sample that, as a whole, favours compounds with a hit. Of some 83,000 tested, about 20% had one in any assay. Active and inactive are the calls of the source. Rule for the calls: active = growth percent below 10; inactive = the rest.
Labels: Y (active), N (inactive)

molecule: COc1ccc(-c2nc(C(Cl)Cl)nc3cc(-c4ccccc4)nn23)cc1
label: Y

molecule: CCCCCc1ccc(S(=O)(=O)Nc2cccc(-c3csc(NC(=O)CCCCCN4CCN(C)CC4)n3)c2)cc1
label: N

molecule: O=C1[C@H]2Cc3c([nH]c4ccccc34)[C@@H](c3ccc(Br)cc3)N2C(=O)CN1C1CCN(CC2CCCCC2)CC1
label: Y

====

System: SK-OV-3 ovarian
testSummary: NCI-60 one-dose screen, 48 h (100 = growth as untreated, 0 = no growth, -100 = all killed)
assayConditions: 10 µM unless noted
The panel holds about 83,000 compounds, 20% with a hit somewhere; the sample as a whole holds those more often.

molecule: CNC(=O)c1cc(-c2ccc(NC(=S)Nc3cc(C(F)(F)F)cc(C(F)(F)F)c3)cc2)nc2cccnc12
growth (%): 102
//
molecule: CN(C)C(=O)c1cc(-c2ccc3ncnc(NCc4ccccc4)c3c2)cnc1N
growth (%): 110
//
molecule: Nc1ccccc1NC(=O)c1ccc(NC(=O)C/C=C/c2cccnc2)cc1
growth (%): 44.5

====

Tested on: UACC-62 melanoma
testSummary: NCI-60 one-dose screen, 48 h
assayConditions: 10 µM unless noted
This is part of a sample that, as a whole, favours compounds with a hit. Of some 83,000 tested, about 20% had one in any assay. Active and inactive are the calls of the source. Rule for the calls: active = growth percent below 10; inactive = the rest.
Labels: yes for active, no for inactive

molecule: CC[C@H](CO)Nc1ccc2ncc(C#Cc3cncc(C(=O)Nc4ccc(CN5CCN(C)CC5)c(C(F)(F)F)c4)c3)n2n1
label: yes
--
molecule: COc1c(N2CC3CCCNC3C2)c(F)cc2c(=O)c(C(=O)N/N=C/c3c[nH]c4ccccc34)cn(C3CC3)c12 (centres undefined)
label: no
--
molecule: COc1ccccc1-n1cc(C#N)c(N)c1C(=O)c1ccc(Br)cc1
label: no
--
molecule: CCOc1ccccc1NC1=C(Cl)C(=O)c2nc(C)ccc2C1=O
label: yes
--
molecule: NS(=O)(=O)c1ccc(Nc2nc(N/N=C/CCc3ccccc3)nc(Nc3ccccc3)n2)cc1
label: no
--
molecule: COc1ccc(-c2nc(C(Cl)Cl)nc3cc(-c4ccccc4)nn23)cc1
label: no
--
molecule: CNc1ncc2cc(-c3ccc(-c4ncccc4F)cc3Cl)c(=O)n(CC3OCC(N)CO3)c2n1 (centres undefined)
label: no
--
molecule: O=C(CNc1nc(-c2cccc([N+](=O)[O-])c2)cs1)Nc1cccc(Cl)c1
label: no
--
molecule: C/C(=N\O)[C@H]1C[C@]23CC[C@]4(C)[C@H](CC[C@@H]5[C@@]6(C)CC/C(=N/O)C(C)(C)[C@@H]6CC[C@]54C)[C@H]2[C@H](C)C1(C)OC3
label: no

====

Test system: DU-145 prostate
testSummary: NCI-60 one-dose screen, 48 h (100 = growth as untreated, 0 = no growth, -100 = all killed)
assayConditions: 10 µM unless noted
Experimental: Cells are grown in 96 well plates and exposed to the test compound for 48 hours. Compounds are tested at a single concentration, which is 10^-5 M for most compounds. The reported endpoint is percent growth (GI% or GIPRCNT), where numbers from 0 - 100% represent growth inhibition, and numbers from -100% - 0 represent cell death. For example, a value of 40 represents 60% growth inhibition. A value of 0 means no net growth occurred over the course of the experiment. […]
About 83,000 compounds went through this panel and 20% of them were active in at least one assay; those are over-represented in the sample as a whole. The source made the active and inactive calls. Rule for the calls: active = growth percent below 10; inactive = the rest.
Reported growth values for a set of compounds

compound: C#CCC#CCN1CCC[C@H]1C(=O)NCC(=O)OC
growth: 105% (inactive)
--
compound: COc1ccccc1-n1cc(C#N)c(N)c1C(=O)c1ccc(Cl)cc1
growth: 93.8% (inactive)
--
compound: CC1(C)[C@@H](O)CC[C@]2(C)[C@H]3CC[C@@H]4[C@H]5[C@H](C(=O)/C=C\c6ccccn6)CC[C@]5(O)CC[C@@]4(C)[C@]3(C)CC[C@@H]12
growth: 33.4% (inactive)
--
compound: C[C@@H](Nc1c(C#N)cnc2ccc(-c3cnc(Cl)c(NS(C)(=O)=O)c3)cc12)c1ccccc1
growth: 7.73% (active)
--
compound: O=C1CCCC2=C1C(c1c[nH]c3ccc(Br)cc13)Cc1cc(Br)ccc1N2 (configuration not stated)
growth: 57.6% (inactive)
--
compound: COc1ccc([C@H]2c3[nH]c4ccccc4c3C[C@H]3C(=O)N(C4CCN(Cc5c(Cl)cccc5Cl)CC4)CC(=O)N23)c(OC)c1
growth: 110% (inactive)
--
compound: Nn1c(N/N=C/c2nc3ccccc3s2)n[nH]c1=S
growth: 97.5% (inactive)
--
compound: Cn1ccnc1C(=O)/C=C/c1ccc(CNC(=O)c2ccc(S(F)(F)(F)(F)F)cc2)cc1
growth: 13.8% (inactive)
--
compound: N/C(=N\C(N)=N\c1nc2ccccc2s1)c1ccc2ccccc2c1
growth: 69% (inactive)
--
compound: COc1ccc2c(c1)c(-c1cc(N)n3nc(-c4cn(C)c5ccc(OC)cc45)cc3n1)cn2C
growth: 93.1% (inactive)
--
compound: CC[C@]12C=CCN3CC[C@@]4(c5cc(NC(=O)COc6cc(O)c7c(=O)cc(-c8ccccc8)oc7c6)c(OC)cc5N(C)[C@H]4[C@@](O)(C(=O)OC)[C@@H]1OC(C)=O)[C@@H]32
growth: -33.6% (active)
--
compound: O=C(CN1CCN(c2cc(=O)n(-c3ccccc3)c3ccccc23)CC1)Nc1cccc(C(F)(F)F)c1
growth: 64.7% (inactive)
--
compound: O=S(=O)(NCCNc1nccc(-n2cnc3ccccc32)n1)c1ccc(Br)cc1
growth: 99.9% (inactive)
--
compound: CCc1ccc(SC2c3ccc(N(CC)CC)cc3Oc3nc(N)c(C#N)c(N)c32)cc1 (configuration not stated)
growth: -86.3% (active)
--
compound: CC1(C)NCCC[C@]2(C)[C@H]3C/C(=N\O)C4[C@@H]5C[C@@](C)(CO)CC[C@]5(C)CC[C@@]4(C)[C@]3(C)CC[C@@H]12 (some centres not stated)
growth: 106% (inactive)
--
compound: N/C(=N\C(N)=N\c1nc2ccccc2s1)c1cccc(F)c1
growth: 104% [5 µM] (inactive)
--
compound: O=c1c2ccccc2nc(COc2ccccc2)n1NS(=O)(=O)c1ccc(Cl)cc1
growth: 100% (inactive)
--
compound: CNC1CCc2c(sc(NC(=O)c3ccc(C(C)(C)C)cc3)c2C(N)=O)C1 (configuration not stated)
growth: 44.7% (inactive)
--
compound: O=C(Nc1nc2ccc([N+](=O)[O-])cc2s1)Nc1ccccc1Cl
growth: 40.2% (inactive)
--
compound: CCCCCCCn1cc2c(N[C@H](C)c3ccccc3)ncnc2n1
growth: 98.1% (inactive)
--
compound: COc1ccccc1NCc1cccn1Cc1ccc(F)cc1
growth: 90% (inactive)
--
compound: N#Cc1cn(Cc2ccc(Cl)cc2Cl)c(C(=O)c2ccc(Br)cc2)c1N
growth: 99.7% (inactive)
--
compound: CCCn1cnc2c(c1=N)C(c1ccc(OC)cc1)c1sc3c(C)cccc3c1O2 (configuration not stated)
growth: 19.1% (inactive)
--
compound: O=C(NNc1nc2cc(F)c(F)cc2n2cccc12)c1cnccn1
growth: 32.7% (inactive)
--
compound: COc1cc(/C=C2\C(=O)Nc3ccccc32)ccc1OCc1ccc(F)cc1
growth: 106% (inactive)
--
compound: C[C@@H]1C[C@H]2C(=O)O[C@@H](C)C(NC(=O)[C@H](Cc3cc(F)cc(F)c3)NC(=O)Nc3ccc(Cl)cc3F)C(=O)N3CCC[C@H]3C(=O)N3CCCC[C@H]3C(=O)N[C@@H](CO)C(=O)N2C1 (some centres not stated)
growth: 26.2% (inactive)
--
compound: NC(N)=Nc1ccc(Oc2cccc(Nc3ccc(Br)c(C(F)(F)F)c3)c2)cc1
growth: 22.8% (inactive)
--
compound: C#C[C@]1(O)CC[C@H]2[C@@H]3CC=C4c5sc(-c6ccc7c(c6)OCO7)nc5CC[C@]4(C)[C@H]3CC[C@@]21C
growth: 20.1% (inactive)
--
compound: COc1ccc(/C(N)=N/C(N)=N/c2nc3ccccc3s2)cc1
growth: 81% (inactive)
--
compound: C#Cc1ccc(C(=O)NCc2ccc(/C=C/C(=O)c3nccn3C)cc2)cc1
growth: 21% (inactive)
--
compound: O=C1[C@H]2Cc3c([nH]c4ccccc34)[C@@H](c3ccc(Cl)cc3)N2C(=O)CN1C1CCN(Cc2ccccc2)CC1
growth: 55.2% (inactive)
--
compound: Nc1cc(-c2c[nH]c3ccc(Br)cc23)nc2cc(-c3c[nH]c4ccc(Br)cc34)nn12
growth: 24.2% (inactive)
